Hey, just so you know, these numbers are from PubChem BioAssay AID504832.

# test_name: Primary qHTS for delayed death inhibitors of the malarial parasite plastid, 48 hour incubation
# condition_parameters: P. falciparum luciferase growth in erythrocytes; series mostly up to 28.7 µM
In all, about 310,000 compounds went through this assay and about 18,000 (5.8%) were called active. About 22% were inconclusive and are not listed. Calls follow the shape of the dose curve; as a rule, active = well fitted inhibition curve with a large enough effect; inconclusive = small, poorly fitted or top-dose-only effect, or another doubt; inactive = no such curve, though single readings can be large or run the other way. What follows is part of a selection rich in actives, with near analogues and random picks from the rest.
Possible outcomes: True for active, False for inactive

> print(dat)
                                    compound  group
 1  O=C(NCCSCc1ccccc1)c1ccc(Cl)c(S(=O)(=O)N2CCOCC2)c1   True
 2  CC[C@H]1CN2CCc3cc(OC)c(OC)cc3[C@@H]2C[C@@H]1C[C@H]1NCCc2cc(OC)c(OC)cc21   True
 3  OC(COc1ccc(F)cc1Cl)CN1CCc2ccccc2C1 (stereo not given)  False
 4   O=C(CCl)Nc1ccc(Sc2ccc(NC(=O)CCl)cc2)cc1   True
 5       O=C(c1cccs1)N1CCN(C(=O)N2CCOCC2)CC1  False
 6     CN(C)/N=C/c1cn(-c2ccccc2)nc1-c1cccnc1  False
 7  Cc1ccc(C(=O)Nc2ncccc2C)cc1S(=O)(=O)N1CCOCC1  False
 8  COc1cccc(CNC(=O)CCCC(=O)Nc2cccc([N+](=O)[O-])c2)c1  False
 9  O=C(N/N=C/c1cccnc1)c1ccc(NC(=O)c2ccc(F)cc2)cc1  False
10  Cc1nnc(SCC(=O)N/N=C/c2cn(-c3ccccc3)nc2-c2ccc(F)cc2)n1-c1ccccc1  False
11  CCCCCCCCCCCCN1C(=O)CSC1c1cccnc1 (stereo not given)   True
12  CCOC(=O)C1=C(c2ccccc2)NC(=O)NC1c1cc(OC)c(OC)cc1OC (stereo not given)  False
13                N#Cc1cccc(CSc2ncnc(N)n2)c1  False
14  O=C(Nc1cccc(-c2nc3ccccc3[nH]2)c1)c1ccc(C(=O)Nc2cccc(-c3nc4ccccc4[nH]3)c2)cc1   True
15              CN(C)c1nc(=Nc2cccc(Cl)c2)ss1   True
16        Cc1ccc(-c2csc(NC(=O)c3cccs3)n2)cc1  False
17  COCc1c(C(=O)N/N=C\c2cccnc2)nnn1-c1nonc1N  False
18  CC(C)[C@@H]1COC(c2cccc(C3=N[C@H](C(C)C)CO3)c2)=N1  False
19  CC1=C(C(=O)OCC2CCCCC2)C(c2ccc(F)cc2)NC(=O)N1 (stereo not given)  False
20  O=C(CNC(=O)c1ccccc1)Oc1ccc([N+](=O)[O-])cc1  False
21  COc1ccccc1NC(=O)CSc1nnc(CNC(=O)c2ccccc2F)o1  False
22                    CCOC(=O)N/N=C/c1cccnc1  False
23      COc1ccc(CN(C)C(=O)Cc2ccsc2)c(OC)c1OC   True
24  CCNC(=O)c1cccc(NC(=O)C2CC(=O)N(CCc3ccccc3)C2)c1 (stereo not given)  False
25  COc1ccc(-c2nn(-c3ccccc3)cc2/C=N/Nc2ccccn2)cc1OC   True
26  COc1ccc(-c2nn(-c3ccccc3)cc2C(=O)Nc2nccs2)cc1OC   True
27  Cc1ccccc1NC(=O)Cc1nc(COC(=O)c2ccc(C(F)(F)F)cc2)cs1  False
28  O=C(Nc1cccc(NC(=O)c2ccc(Br)cc2)c1)c1ccccc1  False
29  O=C(NCCC1CCCCN1S(=O)(=O)c1ccccc1)C(=O)NCC1CCCO1 (stereo not given)  False
30       N=c1oc2ccccc2cc1C(=O)N/N=C/c1ccccc1  False
31  COc1ccc(OC)c(NC(=O)c2ccc3c(c2)CCN3S(C)(=O)=O)c1  False
32  O=C(CCNS(=O)(=O)c1ccccc1C(F)(F)F)Nc1ccncc1  False
33    Cc1ccc(/C=N/NC(=O)CNC(=O)COc2ccccc2)o1  False
34     Cc1nc(NNC(=O)c2ccccc2)cc(-c2ccccc2)n1  False
35  CCOC(=O)C1=C(CNC2CCCCC2)NC(=O)NC1c1cc(C)ccc1C (stereo not given)   True

* * *

# test_name: Primary qHTS for delayed death inhibitors of the malarial parasite plastid, 48 hour incubation
# condition_parameters: P. falciparum luciferase growth in erythrocytes; series mostly up to 28.7 µM
The whole screen tested about 310,000 compounds, of which about 18,000 (5.8%) were called active. Another 22% or so got no clear call; they are omitted. The call rests on the fitted dose curve; in most records, active means well fitted inhibition curve with a large enough effect; inconclusive means small, poorly fitted or top-dose-only effect, or another doubt; inactive means no such curve, though single readings can be large or run the other way. What follows is part of a selection rich in actives, with near analogues and random picks from the rest.
Outcome codes: 1 (active), 0 (inactive)

> print(dat)
                                    compound  group
 1  COc1ccc(CCNS(=O)(=O)c2cccc([N+](=O)[O-])c2)cc1      0
 2              CN(Cc1ccccc1)C(=O)CCc1ccccc1      0
 3     Cc1cccc(-n2c(C)cc(/C=N/NC(N)=S)c2C)c1      0
 4  Cc1cc(Cl)ccc1C(=O)C1CCCN(C(=O)c2nonc2C)C1 (stereo not given)      0
 5  Cc1ccc(S(=O)(=O)N(CC(O)CN2CCCCC2)c2cccc([N+](=O)[O-])c2)cc1 (stereo not given)      0
 6         O=C(NCCc1ccc(F)cc1)c1ccc2nccnc2c1      0
 7  COc1ccc(C2/C(=C(/O)c3ccccc3)C(=O)C(=O)N2C)c(OC)c1 (stereo not given)      0
 8  CCCCCn1c(=O)c(C(=O)NCc2ccccc2)c(O)c2ccccc21      1
 9  COc1ccccc1C(=O)NCc1nnc(SC(C)C(=O)Nc2nccs2)n1C (stereo not given)      0
10  O=C(CCN1C(=O)C2CCCCC2C1=O)Nc1ccc(OC(F)F)cc1 (stereo not given)      0
11        CCOc1ccc(C(=O)CCC(=O)NC2=NCCS2)cc1      0
12  COc1ccc(C(C)NC(=O)C23CC4CC(CC(C4)C2)C3)cc1 (stereo not given)      0
13  Cc1ccc(N(C(=O)c2sc(C)nc2C)C(C(=O)NC(C)(C)C)c2ccncc2)cc1 (stereo not given)      0
14  CC(C)c1nc(SCC(=O)Nc2cccc(C(=O)O)c2)c2c3c(sc2n1)CCCC3      0
15         O=CN1CCN(C(=O)c2ccc3c(c2)OCO3)CC1      0

* * *

# test_name: Primary qHTS for delayed death inhibitors of the malarial parasite plastid, 48 hour incubation
# condition_parameters: P. falciparum luciferase growth in erythrocytes; series mostly up to 28.7 µM
Among all 310,000 compounds or so, about 18,000 (5.8%) were called active. Roughly 22% stayed inconclusive and do not appear here. The call rests on the fitted dose curve; in most records, active means well fitted inhibition curve with a large enough effect; inconclusive means small, poorly fitted or top-dose-only effect, or another doubt; inactive means no such curve, though single readings can be large or run the other way. The sample as a whole holds a higher share of actives than the screen did.
Classes used: true (1) (active), false (0) (inactive)

> print(dat)
                                    compound      group
 1  CCOc1ccc(N2CC(C(=O)NCc3ccccn3)CC2=O)cc1 (stereo not given)  false (0)
 2  CC(CN1CCCCC1)c1ccccc1 (stereo not given)  false (0)
 3             Cc1nc(Cl)cc(N/N=C/c2ccccc2)n1  false (0)
 4  CC(=O)Nc1ccc(NC(=O)CCCNC(=O)c2ccc(Cl)cc2)cc1  false (0)
 5   Nc1ccccc1SCc1cc([N+](=O)[O-])cc2c1OCOC2  false (0)
 6          COc1cc(/C=N/Nc2nc3ccccc3s2)ccc1O  false (0)
 7  O=C(CCNS(=O)(=O)c1ccc(Br)cc1)NCC1CCCO1 (stereo not given)  false (0)
 8  COc1ccc(NC(=O)c2nc(-n3nc(C)cc3C)ccc2Cl)cc1Cl  false (0)
 9  C#CC(CCN1CCCCC1)(OC)c1ccccc1 (stereo not given)  false (0)
10  CN1CCC[C@@H]1CCO[C@](C)(c1ccccc1)c1ccc(Cl)cc1   true (1)
11  O=C(CC1Nc2ccccc2NC1=O)Nc1ccccc1 (stereo not given)   true (1)
12  CC1CN(C(=O)CCC(=O)NC2CCN(Cc3ccccc3)CC2)c2ccccc2O1 (stereo not given)  false (0)
13  CCC(NC(=O)c1cc(COc2ccc(F)c(F)c2)on1)c1ccncc1 (stereo not given)  false (0)
14  CCN(CC)CCn1c2c(c(SCC(=O)Nc3nc4ccccc4s3)nc1=O)CCCC2  false (0)
15  CCCC(=O)N1CCN(c2nnc(-c3ccc(C)cc3)c3ccccc23)CC1   true (1)
16  CCc1cccc(NC(=O)COC(=O)C2CCN(c3ccc(C(F)(F)F)cn3)CC2)c1  false (0)
17    CSc1ccccc1C(=O)OCC(=O)N1CCN(C(C)=O)CC1  false (0)
18  O=C(C1CCCN(S(=O)(=O)c2ccccc2)C1)N1CCN(c2ccc(F)cc2)CC1 (stereo not given)   true (1)
19  O=C(CC1Nc2ccccc2NC1=O)Nc1ccccc1NC(=O)CC1Nc2ccccc2NC1=O (stereo not given)  false (0)
20   CCOc1ncccc1C(=O)OCC(=O)c1c[nH]c2ccccc12   true (1)
21  CC(=O)Nc1ccc(S(=O)(=O)N2CCC(C(=O)N[C@@H](Cc3ccccc3)C(=O)O)CC2)cc1  false (0)
22  CCOc1ccc(OCc2ccc(C(=O)N(C)c3ccccc3)o2)cc1  false (0)
23  CC(=O)N1CCC(C(=O)OCc2ccc(Cl)cc2)(c2ccccc2)CC1  false (0)
24  Cc1cc(/C=C2/SC(=O)N(CC(=O)N3CCCC3)C2=O)c(C)n1C  false (0)
25  CC(=O)N1CCCc2cc(S(=O)(=O)N3CCCC(C(=O)N4CCN(c5cccc(Cl)c5)CC4)C3)ccc21 (stereo not given)   true (1)
